- CONDITIONS: 308.15 K; 101 kPa; Liquid
QUANTITY KIND: viscosity (mPa·s)

Please give the measured viscosity for this molecule: C=COCCCC [1-(ethenyloxy)butane] 0.365

Next molecule: COc1ccccc1 0.863

A = C1COCCO1
B = C1CCOC1 [tetrahydrofuran]
Smaller viscosity value, A vs B ? Answer by stating the label of the chosen item. B

---

- CONDITIONS: 303.15 K; 101 kPa; Liquid
QUANTITY KIND: mass density (kg/m3)

What value of measured mass density is listed for C=COCCCC [1-(ethenyloxy)butane] ? 774.1

Entry COc1ccccc1 please 989.4

Queued: C1COCCO1 1022.7

Now the same for CCCCCCOC(C)=O [hexyl ethanoate] 863.9

Continue with C1CCOC1 [tetrahydrofuran] 878.7

Where do the numbers come from? From the NIST ThermoML archive (doi:10.1021/je400539h).
